# test_target: Phosphatidylinositol 4,5-bisphosphate 3-kinase catalytic subunit beta isoform (Homo sapiens)
# Sequence (P42338 whole entry, canonical isoform): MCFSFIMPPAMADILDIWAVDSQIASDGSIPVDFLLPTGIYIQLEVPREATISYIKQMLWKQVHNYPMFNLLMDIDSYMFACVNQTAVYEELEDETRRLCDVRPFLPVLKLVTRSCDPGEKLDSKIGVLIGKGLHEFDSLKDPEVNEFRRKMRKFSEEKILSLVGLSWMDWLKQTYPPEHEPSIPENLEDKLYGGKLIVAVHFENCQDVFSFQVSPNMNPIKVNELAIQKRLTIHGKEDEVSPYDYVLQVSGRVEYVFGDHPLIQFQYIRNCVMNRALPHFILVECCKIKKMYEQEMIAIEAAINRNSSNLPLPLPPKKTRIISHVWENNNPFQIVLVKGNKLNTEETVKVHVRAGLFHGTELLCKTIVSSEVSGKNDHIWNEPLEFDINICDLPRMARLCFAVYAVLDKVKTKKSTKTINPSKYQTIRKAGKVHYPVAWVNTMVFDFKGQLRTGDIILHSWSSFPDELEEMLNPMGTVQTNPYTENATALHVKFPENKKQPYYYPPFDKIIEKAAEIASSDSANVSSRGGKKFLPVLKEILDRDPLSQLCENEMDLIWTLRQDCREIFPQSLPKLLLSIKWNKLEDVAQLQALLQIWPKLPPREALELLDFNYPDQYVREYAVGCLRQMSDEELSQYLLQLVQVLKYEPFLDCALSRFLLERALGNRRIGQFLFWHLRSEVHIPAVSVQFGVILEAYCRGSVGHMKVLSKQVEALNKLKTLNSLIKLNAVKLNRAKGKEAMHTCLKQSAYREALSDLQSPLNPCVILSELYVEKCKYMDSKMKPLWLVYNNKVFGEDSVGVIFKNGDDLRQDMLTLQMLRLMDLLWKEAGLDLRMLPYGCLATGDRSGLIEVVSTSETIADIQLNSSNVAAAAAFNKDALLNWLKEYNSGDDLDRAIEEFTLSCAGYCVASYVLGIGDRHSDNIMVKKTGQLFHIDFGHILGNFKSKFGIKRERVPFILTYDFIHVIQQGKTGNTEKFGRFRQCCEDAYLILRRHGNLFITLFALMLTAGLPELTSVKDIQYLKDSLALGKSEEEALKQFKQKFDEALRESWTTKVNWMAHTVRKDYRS
# test_method_notes: Inhibition of PI3Kbeta by AlphaScreen assay
pIC50: −log10 of the molar value.

| smiles_entry | pIC50 |
| --- | --- |
| Cc1nc(N)nc(-c2c(Nc3cc[nH]n3)nc3ccccn23)n1 | 5.95 |

* * *

# test_target: Phosphatidylinositol 4,5-bisphosphate 3-kinase catalytic subunit alpha isoform (Homo sapiens)
# test_method_notes: Inhibition of PI3Kalpha by AlphaScreen assay

| smiles_entry | unit_tag | IC50 |
| --- | --- | --- |
| Cc1nc(N)nc(-c2c(Nc3cc[nH]n3)nc3ccc(-c4ccncc4)cn23)n1 | nM | 306 |
| Cc1nc(N)nc(-c2c(Nc3ccn[nH]3)nc3ccc(-c4cnn(C5CC5)c4)cn23)n1 | nM | 144 |
| Cc1nc(N)nc(-c2c(Nc3cc[nH]n3)nc3ccc(-c4cnccc4C)cn23)n1 | nM | 73 |
| Cc1cc(-c2ccc3nc(Nc4cc[nH]n4)c(-c4nc(C)nc(N)n4)n3c2)ccn1 | nM | 239 |
| Cc1nc(N)nc(-c2c(Nc3ccn[nH]3)nc3ccc(-c4cccc(F)c4)cn23)n1 | nM | 654 |

* * *

# test_method_notes: Clearance in rat liver microsomes
# Assay type: ADME, Microsome
# test_conditions: read-out: CLH

| smiles_entry | unit_tag | microsomal CLint |
| --- | --- | --- |
| Cc1nc(N)nc(-c2c(Nc3cc[nH]n3)nc3ccccn23)n1 | µL/min/mg | 29 |

* * *

# test_method_notes: Oral bioavailability in rat at 5 mg/kg
# Type: ADME, organism-based
# test_conditions: in vivo

| smiles_entry | unit_tag | bioavailability |
| --- | --- | --- |
| Cc1nc(N)cc(-c2c(Nc3cc[nH]n3)nc3cccnn23)n1 | % | 100 |
| CC(=O)Nc1cc(-c2c(Nc3ccn(C)n3)nc3ccccn23)nc(C)n1 | % | 4 |
| CC(=O)Nc1cc(-c2c(Nc3ccn(C)n3)nc3ccc(-c4cccnc4C)cn23)nc(C)n1 | % | 38 |
| Cc1nc(N)nc(-c2c(Nc3cc[nH]n3)nc3ccccn23)n1 | % | 24 |
| CC(=O)Nc1cc(-c2c(Nc3ccn(C)n3)nc3cccnn23)nc(C)n1 | % | 34 |
| CNc1cc(-c2c(Nc3cc[nH]n3)nc3cccnn23)nc(C)n1 | % | 29 |
| CC(=O)Nc1cc(-c2c(Nc3ccn(C)n3)nc3ccc(-c4cnco4)cn23)nc(C)n1 | % | 3 |
| CC(=O)Nc1cc(-c2c(Nc3ccn(C)n3)nc3ccc(-c4cnn(C(C)C)c4)cn23)nc(C)n1 | % | 8 |
| CC(=O)Nc1cc(-c2c(Nc3cc[nH]n3)nc3cccnn23)nc(C)n1 | % | 46 |

* * *

# test_method_notes: Half life in rat at 0.5 mg/kg, iv
# Format: ADME, organism-based
# Parameters: dose 0.5 mg/kg, route intravenous
# test_conditions: in vivo
The following molecules are shown together with reported half-life values.

| smiles_entry | half-life, min |
| --- | --- |
| Cc1nc(N)cc(-c2c(Nc3cc[nH]n3)nc3cccnn23)n1 | 51 |
| CC(=O)Nc1cc(-c2c(Nc3ccn(C)n3)nc3ccc(-c4cccnc4C)cn23)nc(C)n1 | 168 |
| CC(=O)Nc1cc(-c2c(Nc3cc[nH]n3)nc3cccnn23)nc(C)n1 | 49.2 |
| Cc1nc(N)cc(-c2c(Nc3cc[nH]n3)nc3ccccn23)n1 | 15 |
| CC(=O)Nc1cc(-c2c(Nc3ccn(C)n3)nc3ccc(-c4cnco4)cn23)nc(C)n1 | 42 |
| Cc1nc(N)nc(-c2c(Nc3cc[nH]n3)nc3ccccn23)n1 | 26.4 |
| CC(=O)Nc1cc(-c2c(Nc3ccn(C)n3)nc3cccnn23)nc(C)n1 | 23.4 |
| Cc1nc(Nc2ccc(N3CCOCC3)nn2)cc(-c2c(Nc3ccn[nH]3)nc3cccnn23)n1 | 95.4 |
| Cc1nc(N)nc(-c2c(Nc3ccn(C)n3)nc3ccc(-c4cncnc4)cn23)n1 | 15.6 |
| COc1cnnc(Nc2cc(-c3c(Nc4cc[nH]n4)nc4cccnn34)nc(C)n2)c1 | 70.8 |

* * *

# test_method_notes: AUC in rat at 0.5 mg/kg, iv
# Assay type: ADME, organism-based, Plasma
# Design: dose 0.5 mg/kg, route intravenous
# test_conditions: plasma
The following compounds are shown together with reported AUC values.
measure_name: AUC

| smiles_entry | reported_measurement |
| --- | --- |
| Cc1nc(N)nc(-c2c(Nc3cc[nH]n3)nc3ccccn23)n1 | 1.8 µM·h |
| Cc1nc(N)cc(-c2c(Nc3cc[nH]n3)nc3cccnn23)n1 | 1 µM·h |
| CC(=O)Nc1cc(-c2c(Nc3ccn(C)n3)nc3ccc(-c4cnco4)cn23)nc(C)n1 | 0.2 µM·h |

* * *

The following compounds are shown together with reported AUC values.
# test_method_notes: AUC in rat at 0.5 mg/kg, iv
# Assay type: ADME, organism-based, Plasma
# Set-up: dose 0.5 mg/kg, route intravenous
# test_conditions: plasma
measure_name: AUC

| smiles_entry | reported_measurement |
| --- | --- |
| CC(=O)Nc1cc(-c2c(Nc3cc[nH]n3)nc3ccccn23)nc(C)n1 | 0.6 µM·h |
| CC(=O)Nc1cc(-c2c(Nc3ccn(C)n3)nc3ccc(-c4cnn(C(C)C)c4)cn23)nc(C)n1 | 1.8 µM·h |
| CC(=O)Nc1cc(-c2c(Nc3ccn(C)n3)nc3ccccn23)nc(C)n1 | 2.3 µM·h |
| CC(=O)Nc1cc(-c2c(Nc3ccn(C)n3)nc3cccnn23)nc(C)n1 | 1.3 µM·h |
| CC(=O)Nc1cc(-c2c(Nc3cc[nH]n3)nc3cccnn23)nc(C)n1 | 0.6 µM·h |

* * *

Reported IC50 for target or system Serine/threonine-protein kinase mTOR (Homo sapiens), by entry.

| compound | IC50 [nM] |
| --- | --- |
| CC(=O)Nc1cc(-c2c(Nc3ccn(C)n3)nc3ccc(-c4cnn(C(C)C)c4)cn23)nc(C)n1 | 16 |
| Cc1nc(Nc2cnccn2)cc(-c2c(Nc3ccn[nH]3)nc3cccnn23)n1 | 6 |
| CC(=O)Nc1cc(-c2c(Nc3ccn(C)n3)nc3ccc(-c4cnco4)cn23)nc(C)n1 | 20 |
| Cc1nc(Nc2cnn(C3CCOC3)c2)cc(-c2c(Nc3ccn[nH]3)nc3cccnn23)n1 (stereo not drawn) | 36 |
| Cc1nc(N)nc(-c2c(Nc3cc[nH]n3)nc3ccc(-c4cccnc4C)cn23)n1 | 3 |
| Cc1nc(N)nc(-c2c(Nc3cc[nH]n3)nc3ccc(-c4cnccc4C)cn23)n1 | 2 |
| Cc1nc(N)cc(-c2c(Nc3cc[nH]n3)nc3cccnn23)n1 | 13 |
| Cc1nc(N)nc(-c2c(Nc3ccn(C)n3)nc3ccc(-c4cncnc4)cn23)n1 | 76 |
| CC(=O)Nc1cc(-c2c(Nc3ccn(C)n3)nc3cccnn23)nc(C)n1 | 55 |
| CC(=O)Nc1cc(-c2c(Nc3ccn(C)n3)nc3ccc(-c4cccnc4C)cn23)nc(C)n1 | 15 |
| Cc1nccc(-c2c(Nc3ccn[nH]3)nc3cccnn23)n1 | 141 |
| COc1cnnc(Nc2cc(-c3c(Nc4cc[nH]n4)nc4cccnn34)nc(C)n2)c1 | 3 |
| Cc1nc(Nc2cccnn2)cc(-c2c(Nc3ccn[nH]3)nc3cccnn23)n1 | 24 |

* * *

# test_target: Phosphatidylinositol 4,5-bisphosphate 3-kinase catalytic subunit alpha isoform (Homo sapiens, UniProt P42336)
# Sequence (P42336 whole entry, canonical isoform): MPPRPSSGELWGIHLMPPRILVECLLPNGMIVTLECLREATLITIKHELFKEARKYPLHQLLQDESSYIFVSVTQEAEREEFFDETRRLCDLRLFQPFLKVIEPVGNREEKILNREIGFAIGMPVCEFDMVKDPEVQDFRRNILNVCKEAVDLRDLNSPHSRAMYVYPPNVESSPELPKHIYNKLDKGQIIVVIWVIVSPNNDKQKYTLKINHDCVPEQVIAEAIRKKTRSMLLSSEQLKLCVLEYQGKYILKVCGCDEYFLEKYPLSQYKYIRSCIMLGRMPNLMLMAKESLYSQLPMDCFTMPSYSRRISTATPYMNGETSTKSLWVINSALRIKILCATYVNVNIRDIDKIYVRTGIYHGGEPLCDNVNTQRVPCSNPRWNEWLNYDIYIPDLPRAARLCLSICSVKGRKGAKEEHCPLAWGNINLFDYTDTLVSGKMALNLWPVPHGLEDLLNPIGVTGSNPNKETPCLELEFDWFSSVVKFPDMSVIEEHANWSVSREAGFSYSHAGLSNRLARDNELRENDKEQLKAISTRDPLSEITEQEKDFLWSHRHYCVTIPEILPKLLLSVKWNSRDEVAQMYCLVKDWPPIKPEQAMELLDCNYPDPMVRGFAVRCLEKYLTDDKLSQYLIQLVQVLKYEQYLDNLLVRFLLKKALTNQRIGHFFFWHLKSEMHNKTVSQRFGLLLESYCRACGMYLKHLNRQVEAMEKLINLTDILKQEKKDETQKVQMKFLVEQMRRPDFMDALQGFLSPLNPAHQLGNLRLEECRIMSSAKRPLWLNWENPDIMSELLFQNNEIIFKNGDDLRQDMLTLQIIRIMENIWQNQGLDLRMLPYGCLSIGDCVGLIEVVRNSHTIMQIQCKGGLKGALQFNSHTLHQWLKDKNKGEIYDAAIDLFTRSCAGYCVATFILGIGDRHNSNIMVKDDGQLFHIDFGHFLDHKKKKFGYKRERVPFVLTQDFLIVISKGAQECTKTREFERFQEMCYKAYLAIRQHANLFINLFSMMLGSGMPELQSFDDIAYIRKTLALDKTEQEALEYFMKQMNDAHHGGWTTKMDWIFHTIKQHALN
# test_method_notes: Inhibition of PI3Kalpha by AlphaScreen assay
pIC50: −log10 of the molar value.

| compound | comparison_symbol | pIC50 |
| --- | --- | --- |
| Cc1nc(Nc2cnccn2)cc(-c2c(Nc3ccn[nH]3)nc3cccnn23)n1 | = | 6.91 |
| Cc1nc(N)nc(-c2c(Nc3ccn[nH]3)nc3ccc(-c4cncn4C)cn23)n1 | = | 6.33 |
| Cc1nc(N)nc(-c2c(Nc3cc[nH]n3)nc3ccc(-c4cncnc4)cn23)n1 | = | 7.07 |
| COc1ncccc1-c1ccc2nc(Nc3ccn[nH]3)c(-c3nc(C)nc(N)n3)n2c1 | = | 6.57 |
| Cc1nc(Nc2cnn(C3CCOC3)c2)cc(-c2c(Nc3ccn[nH]3)nc3cccnn23)n1 (stereo unspecified) | = | 6.98 |
| CC(=O)Nc1cc(-c2c(Nc3ccn(C)n3)nc3ccccn23)nc(C)n1 | = | 5.34 |
| Cc1nc(N)nc(-c2c(Nc3cc[nH]n3)nc3ccccn23)n1 | = | 6.23 |
| Cc1nc(N)nc(-c2c(Nc3cc[nH]n3)nc3ccc(-c4ccccc4F)cn23)n1 | = | 6.19 |
| CC(=O)Nc1cc(-c2c(Nc3ccn(C)n3)nc3cccnn23)nc(C)n1 | = | 5.78 |
| CNc1cc(-c2c(Nc3cc[nH]n3)nc3cccnn23)nc(C)n1 | = | 5.94 |
| Cc1nc(N)nc(-c2c(Nc3ccn(C)n3)nc3ccc(-c4cncnc4)cn23)n1 | = | 6.20 |
| CC(=O)Nc1cc(-c2c(Nc3ccn(C)n3)nc3ccc(-c4cnco4)cn23)nc(C)n1 | = | 5.50 |
| Cc1nc(N)cc(-c2c(Nc3cc[nH]n3)nc3ccccn23)n1 | = | 5.23 |
| Cc1nc(N)cc(-c2c(Nc3cc[nH]n3)nc3cccnn23)n1 | = | 6.12 |
| Cc1nc(Nc2cccnc2)cc(-c2c(Nc3ccn[nH]3)nc3cccnn23)n1 | = | 5.94 |
| Cc1cc(-c2ccc3nc(Nc4cc[nH]n4)c(-c4nc(C)nc(N)n4)n3c2)on1 | = | 6.75 |
| CC(=O)Nc1cc(-c2c(Nc3cc[nH]n3)nc3cccnn23)nc(C)n1 | = | 7.33 |
| Cc1nc(N)nc(-c2c(Nc3cc[nH]n3)nc3ccc(-c4ccccc4C)cn23)n1 | = | 6.41 |
| CC(=O)Nc1cc(-c2c(Nc3ccn(C)n3)nc3ccc(-c4cnn(C(C)C)c4)cn23)nc(C)n1 | < | 3.90 |
| COc1cnnc(Nc2cc(-c3c(Nc4cc[nH]n4)nc4cccnn34)nc(C)n2)c1 | = | 7.27 |
| CC(=O)Nc1cc(-c2c(Nc3ccn(C)n3)nc3ccc(-c4cccnc4C)cn23)nc(C)n1 | = | 5.37 |
